Target: NEK3 (human)
Assay: KINOMEscan competition binding
Settings: compound 10.0 µM
Below: a set of entries, each annotated with reported kinase still bound, per cent of control.
endpoint.name: kinase still bound, per cent of control (%)

- CN(C)C/C=C/C(=O)Nc1cccc(Nc2ncc3c(n2)N(C)c2ccccc2C(=O)N3C)c1: 58
- O=C(NOC[C@H](O)CO)c1ccc(F)c(F)c1Nc1ccc(I)cc1F: 100
- CCN1CCN(Cc2ccc(Nc3ncc4c(n3)N(C)c3ccccc3C(=O)N4C)cc2C(F)(F)F)CC1: 100

====

Molecular target: NEK1 (human)
Assay: KINOMEscan competition binding
Settings: compound 10.0 µM
endpoint.name: kinase still bound, per cent of control (%)

- C=CC(=O)Nc1cc(NC(=O)c2ccc(C)c(NC(=O)c3ccno3)c2)cc(C(F)(F)F)c1: 100
- Cc1ccc(C(=O)Nc2cccc(C(F)(F)F)c2)cc1Nc1cncc(C(N)=O)c1: 100
- CCC(=O)N1CCN(c2ccc(-n3c(=O)ccc4cnc5ccc(-c6cnc7ccccc7c6)cc5c43)cc2C(F)(F)F)CC1: 89
- COc1cc(C(=O)NC2CCN(C)CC2)ccc1Nc1ncc2c(n1)N(C1CCCC1)CCC(=O)N2C(C)C: 100
- CCCS(=O)(=O)Nc1ccc(F)c(C(=O)c2c[nH]c3ncc(-c4ccc(Cl)cc4)cc23)c1F: 100
- Cn1c(=O)n(-c2ccc(C(C)(C)C#N)cc2)c2c3cc(-c4cnc5ccccc5c4)ccc3ncc21: 100

====

Biological target: MERTK (human)
Experiment: KINOMEscan competition binding
Settings: compound 10.0 µM
Below: a set of entries, each annotated with reported kinase still bound, per cent of control.
endpoint.name: kinase still bound, per cent of control (%)

* CCN1CCN(Cc2ccc(Nc3ncc4c(n3)N(C)c3ccccc3C(=O)N4C)cc2C(F)(F)F)CC1 | 48
* Cn1c(=O)n(-c2ccc(C(C)(C)C#N)cc2)c2c3cc(-c4cnc5ccccc5c4)ccc3ncc21 | 100
* CCOc1cc2ncc(C#N)c(Nc3ccc(OCc4ccccn4)c(Cl)c3)c2cc1NC(=O)/C=C/CN(C)C | 8.4
* O=C1Nc2ccc(I)cc2/C1=C/c1cc(Br)c(O)c(Br)c1 | 100
* OCCCNc1cc(-c2ccnc(Nc3cccc(Cl)c3)n2)ccn1 | 100
* Nc1ccc(-c2ccc3ncc4ccc(=O)n(-c5cccc(C(F)(F)F)c5)c4c3c2)cn1 | 87

====

Target: HUNK (human) (UniProt P57058)
Sequence (P57058 whole entry, looked up): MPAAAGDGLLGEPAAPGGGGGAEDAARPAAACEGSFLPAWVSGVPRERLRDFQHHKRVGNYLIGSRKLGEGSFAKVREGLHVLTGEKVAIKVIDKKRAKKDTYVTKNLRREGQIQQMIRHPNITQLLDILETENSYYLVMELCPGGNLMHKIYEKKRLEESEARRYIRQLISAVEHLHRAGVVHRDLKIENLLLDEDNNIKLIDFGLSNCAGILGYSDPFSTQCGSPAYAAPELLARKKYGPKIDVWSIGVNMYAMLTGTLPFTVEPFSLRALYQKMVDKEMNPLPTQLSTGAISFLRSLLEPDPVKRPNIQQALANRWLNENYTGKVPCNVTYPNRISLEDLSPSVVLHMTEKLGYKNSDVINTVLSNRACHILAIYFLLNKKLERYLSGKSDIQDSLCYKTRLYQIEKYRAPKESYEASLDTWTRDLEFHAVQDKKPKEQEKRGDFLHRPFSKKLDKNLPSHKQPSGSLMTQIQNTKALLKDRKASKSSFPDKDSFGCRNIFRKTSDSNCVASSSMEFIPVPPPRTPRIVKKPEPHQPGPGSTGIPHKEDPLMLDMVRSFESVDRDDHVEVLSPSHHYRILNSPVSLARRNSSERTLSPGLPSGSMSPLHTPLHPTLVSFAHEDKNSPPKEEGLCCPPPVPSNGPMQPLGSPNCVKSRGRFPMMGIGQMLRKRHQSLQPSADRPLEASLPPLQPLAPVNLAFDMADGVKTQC
Assay: KINOMEscan competition binding
Conditions: compound 10.0 µM
Sorting guide: entries reporting kinase still bound, per cent of control beneath 90% go in the yes pile, the rest go in the no pile.

* OCCCNc1cc(-c2ccnc(Nc3cccc(Cl)c3)n2)ccn1 | no
* C=CC(=O)Nc1cccc(Nc2nc(N[C@H]3CC[C@H](N(C)C)CC3)nc3c2ncn3C(C)C)c1 | yes
* Cc1ccc2nc(NCCN)c3ncc(C)n3c2c1 | no
* O=C(O)c1ccc(Nc2ncc3c(n2)-c2ccc(Cl)cc2C(c2c(F)cccc2F)=NC3)cc1 | yes
* COc1cc(N2CCN(C)CC2)ccc1Nc1nc(N)c(C(=O)c2c(Cl)cccc2Cl)s1 | no
* C[C@@H](Oc1cc(-n2cnc3ccc(CN4CCN(C)CC4)cc32)sc1C(N)=O)c1ccccc1C(F)(F)F | yes
* CCCS(=O)(=O)Nc1ccc(F)c(C(=O)c2c[nH]c3ncc(-c4ccc(Cl)cc4)cc23)c1F | yes
* CCOc1cc2ncc(C#N)c(Nc3ccc(OCc4ccccn4)c(Cl)c3)c2cc1NC(=O)/C=C/CN(C)C | yes
* CN(C)C/C=C/C(=O)Nc1cccc(Nc2ncc3c(n2)N(C)c2ccccc2C(=O)N3C)c1 | yes
* C=CC(=O)Nc1cc(NC(=O)c2ccc(C)c(NC(=O)c3ccno3)c2)cc(C(F)(F)F)c1 | no
* CCN1CCN(Cc2ccc(Nc3ncc4c(n3)N(C)c3ccccc3C(=O)N4C)cc2C(F)(F)F)CC1 | yes
